molecular target: SIRT2 (Homo sapiens); experiment: biochemical; settings: read-out: Inhibition (%±SD) / SIRT2 / 100 μM
Outcome measure: inhibition at 100 µM

                            smiles_notation       outcome_measure  value
0  Cn1ccc(NC(=O)Nc2ccc3c(c2)C(=O)c2cc(NC(=O)Nc4ccn(C)n4)ccc2-3)n1  inhibition at 100 µM  48.5%
1  O=C(Nc1ccc2c(c1)C(=O)c1cc(NC(=O)Nc3ccon3)ccc1-2)Nc1ccon1  inhibition at 100 µM  84.4%
2  O=C(Nc1ccc2c(c1)C(=O)c1cc(NC(=O)Nc3ccccn3)ccc1-2)Nc1ccccn1  inhibition at 100 µM   101%
3  O=C(COc1ccc2c(c1)C(=O)c1cc(OCC(=O)Nc3ccon3)ccc1-2)Nc1ccon1  inhibition at 100 µM  21.5%

* * *

inhibition at 50 µM listing for selected compounds.
target: SIRT2 (Homo sapiens, UniProt Q8IXJ6); assay: biochemical; details: read-out: Inhibition (%±SD) / SIRT2 / 50 μM
Sequence (Q8IXJ6 2-389): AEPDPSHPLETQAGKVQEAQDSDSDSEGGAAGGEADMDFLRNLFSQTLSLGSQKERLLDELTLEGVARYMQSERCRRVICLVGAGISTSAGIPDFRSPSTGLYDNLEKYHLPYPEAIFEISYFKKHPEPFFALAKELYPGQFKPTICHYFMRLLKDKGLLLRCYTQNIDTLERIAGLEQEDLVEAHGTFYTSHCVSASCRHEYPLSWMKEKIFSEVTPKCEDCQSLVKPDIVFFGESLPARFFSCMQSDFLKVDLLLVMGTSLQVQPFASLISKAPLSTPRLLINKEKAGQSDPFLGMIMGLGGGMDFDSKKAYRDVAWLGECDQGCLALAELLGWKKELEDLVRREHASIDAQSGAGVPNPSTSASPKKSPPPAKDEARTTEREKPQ
Outcome measure: inhibition at 50 µM (%)

                            smiles_notation  unit  value
0  O=C(CSc1ccccc1)Nc1ccc2c(c1)C(=O)c1cc(NC(=O)CSc3ccccc3)ccc1-2     %     51
1  O=C(Nc1ccc2c(c1)C(=O)c1cc(NC(=O)Nc3ccccn3)ccc1-2)Nc1ccccn1     %   67.6
2  Cn1ccc(NC(=O)COc2ccc3c(c2)C(=O)c2cc(OCC(=O)Nc4ccn(C)n4)ccc2-3)n1     %     64
3  Cn1ccc(NC(=O)Nc2ccc3c(c2)C(=O)c2cc(NC(=O)Nc4ccn(C)n4)ccc2-3)n1     %   21.6
4  O=C(Nc1ccc2c(c1)C(=O)c1cc(NC(=O)Nc3ccon3)ccc1-2)Nc1ccon1     %   77.8
5  O=C(Nc1ccc2c(c1)C(=O)c1cc(NC(=O)Nc3nccs3)ccc1-2)Nc1nccs1     %   72.4

* * *

target: SIRT2 (Homo sapiens, UniProt Q8IXJ6); test: biochemical; conditions: read-out: Inhibition (%±SD) / SIRT2 / 100 μM
inhibition at 100 µM for assorted compounds
Outcome measure: inhibition at 100 µM (%)

In [3]: df
Out[3]:
                            smiles_notation                                   tgt       outcome_measure  value
0  Cn1ccnc1SCC(=O)Nc1ccc2c(c1)C(=O)c1cc(NC(=O)CSc3nccn3C)ccc1-2  SIRT2 (Homo sapiens, UniProt Q8IXJ6)  inhibition at 100 µM   18.1
1  O=C(COc1ccc2c(c1)C(=O)c1cc(OCC(=O)Nc3ccccn3)ccc1-2)Nc1ccccn1  SIRT2 (Homo sapiens, UniProt Q8IXJ6)  inhibition at 100 µM    103
2  O=C(COc1ccc2c(c1)C(=O)c1cc(OCC(=O)Nc3nccs3)ccc1-2)Nc1nccs1  SIRT2 (Homo sapiens, UniProt Q8IXJ6)  inhibition at 100 µM    102
3  O=C(Nc1ccc2c(c1)C(=O)c1cc(NC(=O)Nc3nccs3)ccc1-2)Nc1nccs1  SIRT2 (Homo sapiens, UniProt Q8IXJ6)  inhibition at 100 µM    106
4  O=C(CSc1ccccc1)Nc1ccc2c(c1)C(=O)c1cc(NC(=O)CSc3ccccc3)ccc1-2  SIRT2 (Homo sapiens, UniProt Q8IXJ6)  inhibition at 100 µM   71.4
5  Cc1cc(C)nc(SCC(=O)Nc2ccc3c(c2)C(=O)c2cc(NC(=O)CSc4nc(C)cc(C)n4)ccc2-3)n1  SIRT2 (Homo sapiens, UniProt Q8IXJ6)  inhibition at 100 µM   17.2
6  Cn1ccc(NC(=O)COc2ccc3c(c2)C(=O)c2cc(OCC(=O)Nc4ccn(C)n4)ccc2-3)n1  SIRT2 (Homo sapiens, UniProt Q8IXJ6)  inhibition at 100 µM   65.6
7  CN(CC(=O)Nc1ccc2c(c1)C(=O)c1cc(NC(=O)CN(C)c3ccccc3)ccc1-2)c1ccccc1  SIRT2 (Homo sapiens, UniProt Q8IXJ6)  inhibition at 100 µM   85.5

* * *

Listed compounds paired with reported inhibition at 100 µM
biological target: UniProt:Q9NTG7; assay: biochemical; details: read-out: Inhibition (%±SD) / SIRT3 / 100 μM
Sequence (Q9NTG7 102-399): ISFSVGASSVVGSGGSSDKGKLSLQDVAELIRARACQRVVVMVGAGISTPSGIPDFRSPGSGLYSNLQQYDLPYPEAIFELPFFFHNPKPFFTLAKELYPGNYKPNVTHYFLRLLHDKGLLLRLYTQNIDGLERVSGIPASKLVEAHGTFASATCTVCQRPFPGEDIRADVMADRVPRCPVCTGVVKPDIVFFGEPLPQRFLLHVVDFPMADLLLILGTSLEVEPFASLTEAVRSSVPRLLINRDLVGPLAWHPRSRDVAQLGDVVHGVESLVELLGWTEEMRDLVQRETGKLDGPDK
Outcome measure: inhibition at 100 µM (%)

>>> df
                            smiles_notation  value
0  O=C(Nc1ccc2c(c1)C(=O)c1cc(NC(=O)Nc3nccs3)ccc1-2)Nc1nccs1   44.7
1  Cn1ccc(NC(=O)Nc2ccc3c(c2)C(=O)c2cc(NC(=O)Nc4ccn(C)n4)ccc2-3)n1   17.5
2  O=C(CSc1ccccc1)Nc1ccc2c(c1)C(=O)c1cc(NC(=O)CSc3ccccc3)ccc1-2     90
3  O=C(COc1ccc2c(c1)C(=O)c1cc(OCC(=O)Nc3nccs3)ccc1-2)Nc1nccs1   55.6
4  O=C(COc1ccc2c(c1)C(=O)c1cc(OCC(=O)Nc3ccccn3)ccc1-2)Nc1ccccn1   83.1
5  O=C(Nc1ccc2c(c1)C(=O)c1cc(NC(=O)Nc3ccccn3)ccc1-2)Nc1ccccn1   42.5
6  CN(CC(=O)Nc1ccc2c(c1)C(=O)c1cc(NC(=O)CN(C)c3ccccc3)ccc1-2)c1ccccc1   95.8
7  O=C(Nc1ccc2c(c1)C(=O)c1cc(NC(=O)Nc3ccon3)ccc1-2)Nc1ccon1   18.6
8  Cn1ccc(NC(=O)COc2ccc3c(c2)C(=O)c2cc(OCC(=O)Nc4ccn(C)n4)ccc2-3)n1   36.8

* * *

molecular target: SIRT1 (Homo sapiens, UniProt Q96EB6); assay: biochemical; conditions: read-out: Inhibition (%±SD) / SIRT1 / 100 μM
Sequence (Q96EB6 2-747): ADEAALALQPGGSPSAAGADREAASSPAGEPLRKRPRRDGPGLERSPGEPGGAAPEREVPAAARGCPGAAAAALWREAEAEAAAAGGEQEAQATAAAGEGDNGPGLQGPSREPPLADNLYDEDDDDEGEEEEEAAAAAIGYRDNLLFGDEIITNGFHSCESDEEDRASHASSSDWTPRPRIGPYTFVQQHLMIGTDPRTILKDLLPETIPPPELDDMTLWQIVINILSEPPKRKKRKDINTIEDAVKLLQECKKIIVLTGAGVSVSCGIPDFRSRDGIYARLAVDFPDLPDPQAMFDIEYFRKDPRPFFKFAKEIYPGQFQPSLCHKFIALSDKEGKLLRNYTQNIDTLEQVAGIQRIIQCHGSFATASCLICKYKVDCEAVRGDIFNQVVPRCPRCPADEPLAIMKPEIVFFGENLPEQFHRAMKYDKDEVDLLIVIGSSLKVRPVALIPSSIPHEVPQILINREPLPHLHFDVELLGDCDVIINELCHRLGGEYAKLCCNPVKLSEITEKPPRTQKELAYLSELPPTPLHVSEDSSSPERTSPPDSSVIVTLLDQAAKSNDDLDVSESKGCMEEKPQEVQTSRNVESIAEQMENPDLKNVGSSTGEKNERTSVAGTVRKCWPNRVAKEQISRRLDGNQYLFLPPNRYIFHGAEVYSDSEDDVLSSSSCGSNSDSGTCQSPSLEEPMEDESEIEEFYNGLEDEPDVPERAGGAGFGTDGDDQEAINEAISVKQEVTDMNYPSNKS
The reader will find reported inhibition at 100 µM values listed item by item below.
Outcome measure: inhibition at 100 µM (%)

                            smiles_notation                                   tgt       outcome_measure  unit  value
0  O=C(COc1ccc2c(c1)C(=O)c1cc(OCC(=O)Nc3ccccn3)ccc1-2)Nc1ccccn1  SIRT1 (Homo sapiens, UniProt Q96EB6)  inhibition at 100 µM     %   13.2
1  O=C(Nc1ccc2c(c1)C(=O)c1cc(NC(=O)Nc3ccccn3)ccc1-2)Nc1ccccn1  SIRT1 (Homo sapiens, UniProt Q96EB6)  inhibition at 100 µM     %   24.7
2  CN(CC(=O)Nc1ccc2c(c1)C(=O)c1cc(NC(=O)CN(C)c3ccccc3)ccc1-2)c1ccccc1  SIRT1 (Homo sapiens, UniProt Q96EB6)  inhibition at 100 µM     %   88.4
3  O=C(Nc1ccc2c(c1)C(=O)c1cc(NC(=O)Nc3nccs3)ccc1-2)Nc1nccs1  SIRT1 (Homo sapiens, UniProt Q96EB6)  inhibition at 100 µM     %   22.5
4  Cn1ccc(NC(=O)Nc2ccc3c(c2)C(=O)c2cc(NC(=O)Nc4ccn(C)n4)ccc2-3)n1  SIRT1 (Homo sapiens, UniProt Q96EB6)  inhibition at 100 µM     %   11.3
5  O=C(COc1ccc2c(c1)C(=O)c1cc(OCC(=O)Nc3nccs3)ccc1-2)Nc1nccs1  SIRT1 (Homo sapiens, UniProt Q96EB6)  inhibition at 100 µM     %   71.2
6  Cn1ccc(NC(=O)COc2ccc3c(c2)C(=O)c2cc(OCC(=O)Nc4ccn(C)n4)ccc2-3)n1  SIRT1 (Homo sapiens, UniProt Q96EB6)  inhibition at 100 µM     %   27.8
